Origin of values: patent US20250222125A1

molecular target: human FGFR2b protein (recombinant, coated on ELISA plates) (human) (UniProt P21802); experiment: ELISA, plate-coated human FGFR2b
Sequence (P21802 other isoform, or with tags, fused parts or gaps limits assumed): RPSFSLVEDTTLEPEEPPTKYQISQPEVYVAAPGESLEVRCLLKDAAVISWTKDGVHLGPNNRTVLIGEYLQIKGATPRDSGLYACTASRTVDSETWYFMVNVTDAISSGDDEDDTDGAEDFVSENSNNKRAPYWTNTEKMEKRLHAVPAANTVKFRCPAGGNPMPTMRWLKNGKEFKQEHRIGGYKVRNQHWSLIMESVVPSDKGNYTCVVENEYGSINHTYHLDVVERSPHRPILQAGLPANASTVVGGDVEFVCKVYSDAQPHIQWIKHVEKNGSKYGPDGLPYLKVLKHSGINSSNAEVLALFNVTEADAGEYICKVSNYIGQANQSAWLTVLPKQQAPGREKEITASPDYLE
readout: Emax (A450)
# unit: A450 | format: bare number

Prompt line: What Emax (A450) value was documented for this binder, BGAm1823 (antibody, V domains shown) VH: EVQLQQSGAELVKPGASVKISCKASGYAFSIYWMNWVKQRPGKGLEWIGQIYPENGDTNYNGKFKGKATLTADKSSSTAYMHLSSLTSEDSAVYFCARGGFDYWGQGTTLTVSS VL: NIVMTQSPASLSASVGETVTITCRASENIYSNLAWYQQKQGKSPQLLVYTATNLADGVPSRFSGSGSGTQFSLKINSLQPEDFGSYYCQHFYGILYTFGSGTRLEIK ?
Response line: 2.95

Prompt line: Field request: Emax (A450) | item: BGAh9179 (antibody, human IgG1, kappa, V domains shown) VH: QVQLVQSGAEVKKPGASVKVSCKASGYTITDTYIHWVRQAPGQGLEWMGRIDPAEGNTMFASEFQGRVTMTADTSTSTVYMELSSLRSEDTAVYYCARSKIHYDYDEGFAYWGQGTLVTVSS VL: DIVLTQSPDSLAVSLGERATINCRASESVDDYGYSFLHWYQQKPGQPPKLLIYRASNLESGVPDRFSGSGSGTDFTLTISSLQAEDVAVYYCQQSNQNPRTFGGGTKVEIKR
Response line: 2.99

Prompt line: Item under review: BGAh9239 (antibody, human IgG1, kappa, V domains shown) VH: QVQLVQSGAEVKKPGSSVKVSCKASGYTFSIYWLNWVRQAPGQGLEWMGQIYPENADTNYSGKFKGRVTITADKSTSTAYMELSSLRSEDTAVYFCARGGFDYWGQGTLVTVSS VL: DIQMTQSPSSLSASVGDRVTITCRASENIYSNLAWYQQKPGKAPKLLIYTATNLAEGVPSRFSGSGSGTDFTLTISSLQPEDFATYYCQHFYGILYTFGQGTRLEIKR . Reported Emax (A450)?
Response line: 2.94
